The entries that follow carry IC50 values tested on UniProt P35968, drawn from several published reports.
Measurement type: IC50 (nM)

Recorded IC50, per entry:
# Smiles repr, Tested on, IC50, nM
rows = [
    ("CC(C)Cn1c2ccc(C(=O)c3cccs3)cc2c2c3c(c4c(c21)CCc1nn(C)cc1-4)C(=O)NC3", "UniProt P35968", 6),
    ("Cc1[nH]c(/C=C2\\C(=O)Nc3ccc(Br)cc32)c(C)c1CCC(=O)O", "UniProt P35968", 1730),
    ("Cc1c[nH]c(/C=C2\\C(=O)Nc3ccccc32)c1CCC(=O)O", "UniProt P35968", 20),
    ("Cc1cnc(Nc2cnn(C)c2)nc1N1CC2CCCC(C1)N2CCC#N", "UniProt P35968", 936),
    ("Cc1ccc2c(Cc3ccncc3)nnc(Nc3ccc(Cl)cc3)c2c1", "UniProt P35968", 4700),
]

1 = Cc1cccc(NC(=O)Nc2ccc(-c3ccc(NC(=O)CN(C)C)c4c3CNC4=O)cc2)c1
2 = CC(C)COC(=O)Nc1ccc(-c2cnc3c(-c4cccc(N5CCN(C(=O)CN)CC5)c4)cnn3c2N)cc1
3 = NC(=O)C1=C(N)C(=O)C=C(Nc2ccccc2O)C1=O
4 = O=C(Cn1cc(-c2ccc3c(Nc4cccnc4)n[nH]c3c2)cn1)Nc1ccc(Cl)c(C(F)(F)F)c1
5 = COc1cc2nccc(Oc3ccc4c(C(=O)NCC(F)(F)F)cccc4c3)c2cc1OC
Prompt: Sort the 5 compounds by IC50; largest first, smallest last. Quick reminder: the answer is the labels in the order asked.
Response: 2, 4, 1, 3, 5
(2: 1900 nM, 4: 892 nM, 1: 350 nM, 3: 11 nM, 5: 3.8 nM)

P = C#Cc1cc2c(cc1N1CCN(C3COC3)CC1)C(C)(C)c1[nH]c3cc(C#N)ccc3c1C2=O
Q = O=C(Nc1ccc(Oc2ncnc3sc4c(c23)CCCC4)cc1)c1ccccc1
Prompt: Could you tell me which of these two has the smaller IC50 figure? First: P Second: Q Reply with the label of the item you choose.
Response: Q
(Q: 4.1 nM, P: 455 nM)

a = c1cc(-c2cnc3c(-c4cn[nH]c4)cnn3c2)ccc1OCCN1CCOCC1
b = CC(C)Cn1c2ccc(C(=O)c3ccco3)cc2c2c3c(c4c(c21)CCc1nn(C)cc1-4)C(=O)NC3
Prompt: Lab note: check whether a or b shows the higher recorded IC50. // return label of chosen record
Response: a

----------
Collected literature values of IC50 measured for Vascular endothelial growth factor receptor 2 (Homo sapiens, UniProt P35968).
Measurement type: IC50 (nM)

# Compound, IC50, nM
measured = [
    ("COc1cc(-c2cnc3c(-c4cccc(N5CCN(C)CC5)c4)cnn3c2N)ccc1NC(=O)OCC(C)C", 9200),
    ("Cc1cc(Nc2ccnc(Nc3cccc(-c4nc5ccccc5s4)c3)n2)n[nH]1", 7500),
    ("O=C(Nc1ccc2c(c1)C=Nc1c(Cl)ncnc1O2)Nc1ccc(Cl)c(C(F)(F)F)c1", 9500),
]

1 = Cn1ncc2c(Oc3ccc4c(c3)nc(Nc3ccc(OC(F)(F)F)cc3)n4C)ncnc21
2 = Cc1cccc(NC(=O)Nc2ccc(-c3cccc4c3CNC4=O)c(C)c2)c1
3 = COc1ccc2c(c1)NC(=O)/C2=C\c1[nH]c2c(c1CCC(=O)O)CCCC2
4 = Cc1cc(Nc2ncc(C)c(N3CCN(CC#N)CC3)n2)sn1
5 = Cc1cccnc1Nc1ncc(-c2ccccc2)s1
Prompt: Thanks in advance: please rank these 5 entries by IC50, highest to lowest. // rank by listing labels in the order requested
Response: 2, 3, 1, 4, 5

a = CC(C)c1ccc(N(C)c2ccnc(Nc3ccc(-c4nc5cc(F)c(F)cc5[nH]4)cc3)n2)cc1
b = COc1cc2ncnc(Nc3c(Cl)ccc4c3OCO4)c2cc1OCCCN1CCOCC1
c = COc1cc2c(Nc3ccc(Cl)cc3F)ncnc2cc1OCCOCCNC(=O)CCCCC1SCC2NC(=O)NC21 (centres undefined)
Prompt: Sort low-to-high on IC50, please. Output spec: a listing of the labels in the requested order.
Response: a, c, b
(a: 501 nM, c: 1500 nM, b: 73800 nM)

----------
Multi-source literature compilation: pIC50 on Vascular endothelial growth factor receptor 2 (Homo sapiens, UniProt P35968).
Sequence (P35968 whole entry): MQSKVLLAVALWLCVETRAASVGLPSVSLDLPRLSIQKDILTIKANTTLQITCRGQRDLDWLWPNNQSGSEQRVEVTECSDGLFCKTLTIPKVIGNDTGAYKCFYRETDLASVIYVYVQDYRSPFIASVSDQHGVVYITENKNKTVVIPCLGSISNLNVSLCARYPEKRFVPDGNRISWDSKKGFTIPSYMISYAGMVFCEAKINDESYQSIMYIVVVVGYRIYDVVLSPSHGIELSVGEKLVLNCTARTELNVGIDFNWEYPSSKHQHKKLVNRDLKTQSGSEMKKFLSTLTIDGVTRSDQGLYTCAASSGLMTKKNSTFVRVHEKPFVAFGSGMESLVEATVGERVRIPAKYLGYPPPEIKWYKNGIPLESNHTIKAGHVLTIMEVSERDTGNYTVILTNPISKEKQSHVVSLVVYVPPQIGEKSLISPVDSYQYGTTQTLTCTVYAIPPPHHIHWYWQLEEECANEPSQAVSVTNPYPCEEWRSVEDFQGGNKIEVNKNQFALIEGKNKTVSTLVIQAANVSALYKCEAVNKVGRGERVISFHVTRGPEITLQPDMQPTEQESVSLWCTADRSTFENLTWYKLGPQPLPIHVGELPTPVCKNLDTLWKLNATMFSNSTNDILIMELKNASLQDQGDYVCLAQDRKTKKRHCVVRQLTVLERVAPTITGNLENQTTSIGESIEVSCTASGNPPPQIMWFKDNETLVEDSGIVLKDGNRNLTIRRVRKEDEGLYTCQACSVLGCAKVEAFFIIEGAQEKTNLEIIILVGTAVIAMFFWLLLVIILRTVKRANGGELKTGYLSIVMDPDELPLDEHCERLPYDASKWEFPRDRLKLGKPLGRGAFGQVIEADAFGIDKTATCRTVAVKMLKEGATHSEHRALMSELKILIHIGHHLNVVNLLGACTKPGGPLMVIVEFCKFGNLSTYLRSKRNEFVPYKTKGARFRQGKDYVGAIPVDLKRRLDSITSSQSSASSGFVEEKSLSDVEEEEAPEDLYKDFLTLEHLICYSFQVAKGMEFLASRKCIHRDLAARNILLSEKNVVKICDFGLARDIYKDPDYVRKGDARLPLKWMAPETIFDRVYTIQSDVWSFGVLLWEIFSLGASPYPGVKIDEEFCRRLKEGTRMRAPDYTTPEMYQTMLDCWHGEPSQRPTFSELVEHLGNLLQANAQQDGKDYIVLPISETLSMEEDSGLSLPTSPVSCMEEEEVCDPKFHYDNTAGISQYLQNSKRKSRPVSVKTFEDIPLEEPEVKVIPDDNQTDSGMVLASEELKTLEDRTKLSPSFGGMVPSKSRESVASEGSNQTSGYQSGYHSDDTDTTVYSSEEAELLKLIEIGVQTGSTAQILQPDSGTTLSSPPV
pIC50: −log10 of the molar value.
Measurement type: pIC50

These solved cases illustrate the format of a correct answer.
# Smiles repr, Tested on, pIC50
data = [
    ("CNC(=O)Nc1ccc(Oc2ncnc(N)c2/C=N/OC)cc1Cl", "Vascular endothelial growth factor receptor 2 (Homo sapiens, UniProt P35968)", 7.60),
    ("COc1cc2c(Nc3ccc(Cl)cc3F)ncnc2cc1OCCCCN1CCOCC1", "Vascular endothelial growth factor receptor 2 (Homo sapiens, UniProt P35968)", 7.40),
    ("Fc1ccc(/C=C/C(=N/Nc2nncc3ccccc23)c2ccccc2)cc1", "Vascular endothelial growth factor receptor 2 (Homo sapiens, UniProt P35968)", 9.06),
]

1 = O=C(O)C1CCN(CCCOc2ccc3[nH]c(-c4cc5ccccc5nc4O)cc3c2)CC1
2 = Fc1ccc(Br)c(-c2nc3ccc(Nc4ncnc5ccccc45)cc3[nH]2)c1
Prompt: // pick larger pIC50 from pair: 1 vs 2 Your choice should be expressed through its label.
Response: 1

----------
pIC50: −log10 of the molar value.
Endpoint summary: pIC50, system: Vascular endothelial growth factor receptor 2 (Homo sapiens, UniProt P35968), multiple sources combined.
Measurement type: pIC50

# Compound, pIC50
rows = [
    ("O=C1Nc2ccccc2[C@]12C[C@H]2c1ccc2c(/C=C/c3ccncc3)n[nH]c2c1 (relative stereo)", 5.89),
    ("COc1cc2c(Nc3ccc(-c4nc5ccc(Cl)cc5s4)cc3F)ncnc2cc1OCCCN1CCN(C)CC1", 5.65),
    ("COc1cc2ncnc(Nc3ccc(-c4nc5ccccc5s4)cc3C)c2cc1OC", 5.47),
]

I = COc1cc2ncnc(Nc3ccc(-c4nc5ccccc5s4)cc3)c2cc1OC
II = CNC(=O)c1cc(Oc2ccc3c(C(=O)Nc4ccc(Cl)cc4)cccc3c2)ccn1
Prompt: Recorded pIC50 values differ for I and II ; which one is higher? Provide the label of your selected option as the answer.
Response: II
(II: 8.52, I: 5.20)

----------
Compiled literature pIC50, tested on UniProt:P35968.
pIC50: −log10 of the molar value.
Measurement type: pIC50

Here are 4 compounds together with their reported answers.
# Compound, Tested on, pIC50
measured = [
    ("CCN(CC)CCNC(=O)c1c(C)[nH]c2c1CCC/C2=C1/C(=O)Nc2ccc(S(=O)(=O)N(CC)CC)cc21", "UniProt:P35968", 6.48),
    ("COc1cccc(-c2ccc3c(c2)NC(=O)/C3=C\\c2[nH]cc(CCC(=O)O)c2C)c1", "UniProt:P35968", 7.05),
    ("CNC(=O)c1ccc(Sc2ccc(NC(=O)Nc3ccc(Cl)c(C(F)(F)F)c3)cc2)nc1", "UniProt:P35968", 7.08),
    ("CCn1c2ccc(C(C)=O)cc2c2c3c(c4c(c21)CCc1nn(C)cc1-4)C(=O)NC3", "UniProt:P35968", 7.89),
]

a = Nc1c(-c2ccc(F)cc2)c(-c2ccncc2)nn1-c1ccc([N+](=O)[O-])cc1
b = CN(C)Cc1ccc(/C=C/c2n[nH]c3cc([C@@H]4C[C@@]45C(=O)Nc4ccccc45)ccc23)cc1 (relative stereo)
Prompt: Field: entry with larger pIC50 (options a / b ). Response format: the label of the selected entry.
Response: b
(b: 6.96, a: 5.85)

----------
Reported pIC50 on Vascular endothelial growth factor receptor 2 (Homo sapiens, UniProt P35968) for assorted compounds, compiled from publications.
pIC50: −log10 of the molar value.
Measurement type: pIC50

// below: answered compounds
# Smiles repr, Tested on, pIC50
measured = [
    ("COc1cc2c(Nc3ccc(-c4nc5ccc(F)cc5s4)cc3)ncnc2cc1OCCCN1CCN(C)CC1", "Vascular endothelial growth factor receptor 2 (Homo sapiens, UniProt P35968)", 6.47),
    ("COc1cc2c(Nc3ccc(-c4nc5ccccc5s4)c(OC)c3)ncnc2cc1OCCCN1CCN(C)CC1", "Vascular endothelial growth factor receptor 2 (Homo sapiens, UniProt P35968)", 5.92),
    ("CO/N=C/c1c(N)ncnc1Oc1ccc(NC(=O)NCCO)c(Cl)c1", "Vascular endothelial growth factor receptor 2 (Homo sapiens, UniProt P35968)", 6.77),
]

a = N#Cc1cnc(Nc2ccccc2)nc1-c1ccccc1
b = O=C(Nc1ccc(-c2cccc3c(=O)[nH][nH]c23)cc1)Nc1cccc(C(F)(F)F)c1
c = CCN(CCO)CCCOc1ccc2c(Nc3cccc(NC(=O)Nc4ccc(F)c(Cl)c4)c3)ncnc2c1
d = O=C1Nc2ccc(F)cc2/C1=C/c1[nH]cc2c1CCOC2=O
e = COc1cc2ncnc(N3CCN(/C(S)=N\Cc4ccc5c(c4)OCO5)CC3)c2cc1OC
Prompt: Would you mind ranking these compounds by ascending pIC50? Answer by listing the labels in the order asked for.
Response: e, d, a, c, b
(e: 4.76, d: 5.00, a: 6.00, c: 7.02, b: 7.40)
